System: HepG2
Assay: cytotoxicity call (relative viability < 0.9)
Conditions: 10 µM
The whole screen tested about 39,000 compounds, of which about 3,300 (8.5%) were called active. For the sample, actives were picked, then their nearest neighbours and some compounds at random.
// allowed return values: active, inactive

Completed entries (count: 3):
- MOLECULE: "COCCOC(=O)N1C(=O)[C@@]2(c3cc(C#CC4=CCCCC4)ccc31)[C@H](C(=O)N1CCCCCCC1)[C@H]1C(=O)O[C@H](c3ccccc3)[C@H](c3ccccc3)N1[C@@H]2c1ccc(OCCO)cc1"
  TARGET: "HepG2"
  CATEGORY LABEL: "inactive"
- MOLECULE: "C=CCNC(=O)[C@H]1[C@@H]2C(=O)O[C@@H](c3ccccc3)[C@@H](c3ccccc3)N2[C@@H](c2ccc(O)cc2)[C@]12C(=O)N(C(=O)OCCOC)c1ccc(C#CC3(O)CCCCCC3)cc12"
  TARGET: "HepG2"
  CATEGORY LABEL: "inactive"
- MOLECULE: "CN1CCN(C(=O)C[C@H]2CC[C@@H]3[C@H](COC[C@@H](O)CN3Cc3ccc(Oc4ccccc4)cc3)O2)CC1"
  TARGET: "HepG2"
  CATEGORY LABEL: "active"

Recorded test outcome, item Cc1ccccc1S(=O)(=O)N1C[C@@H](O)COC[C@H]2O[C@H](CC(=O)N3CCC(Cc4ccccc4)CC3)CC[C@@H]21
active

Recorded test outcome, item COCCOC(=O)N1C(=O)[C@@]2(c3cc(C#CC4(O)CCCCCC4)ccc31)[C@H](c1ccc(OCCO)cc1)N1[C@H](c3ccccc3)[C@H](c3ccccc3)OC(=O)[C@H]1[C@@H]2C(N)=O
inactive

Recorded test outcome, item O=C1NC(=O)[C@@]2(CC[C@H](C(=O)O)C2)N1
inactive

###

Tested on: HepG2
Assay: cytotoxicity call (relative viability < 0.9)
Details: 10 µM
Among all 39,000 compounds or so, about 3,300 (8.5%) were called active. Many of the other results were omitted from the sample, so actives are more common in it than they were.
METRIC NAME: cytotoxicity call

- MOLECULE: "CN1C(=O)c2cc(NC(=O)c3ccc(F)c(F)c3)ccc2OC[C@@H]2O[C@@H](CC(=O)N3CCOCC3)CC[C@H]21"
  cytotoxicity call: "inactive"
- MOLECULE: "C[C@@H]1CN([C@H](C)CO)C(=O)Cc2cc(NC(=O)Nc3cccc4ccccc34)ccc2O[C@H]1CN(C)S(=O)(=O)c1ccc(F)cc1"
  cytotoxicity call: "inactive"
- MOLECULE: "CNC[C@@H]1OCCCC[C@H](C)Oc2ccc(NC(=O)c3ccncc3)cc2C(=O)N([C@@H](C)CO)C[C@@H]1C"
  cytotoxicity call: "inactive"
- MOLECULE: "C[C@@H]1CN([C@@H](C)CO)C(=O)c2cccc(NC(=O)c3ccncc3)c2O[C@@H]1CN(C)Cc1ccc(-c2ccccc2)cc1"
  cytotoxicity call: "inactive"
- MOLECULE: "C[C@@H]1CCCCO[C@H](CN(C)C(=O)Nc2cccc3ccccc23)[C@H](C)CN([C@@H](C)CO)C(=O)c2cc(NC(=O)NC3CCCCC3)ccc2O1"
  cytotoxicity call: "active"
- MOLECULE: "C[C@H](CO)N1C[C@H](C)[C@H](CN(C)C(=O)Nc2cccc3ccccc23)Oc2ncc(-c3cccc(C(F)(F)F)c3)cc2C1=O"
  cytotoxicity call: "inactive"

Looking for the measured cytotoxicity call of C[C@@H]1CCCCO[C@H](CN(C)C(=O)Nc2ccccc2)[C@H](C)CN([C@H](C)CO)C(=O)c2cc(NC(=O)NC3CCCCC3)ccc2O1 , can you help?
inactive

Looking for the measured cytotoxicity call of C[C@@H]1CCCCO[C@H](CN(C)C(=O)Nc2cccc3ccccc23)[C@@H](C)CN([C@H](C)CO)C(=O)c2cc(NC(=O)NC3CCCCC3)ccc2O1 , can you help?
inactive

Looking for the measured cytotoxicity call of O=C(C[C@H]1CC[C@@H]2[C@H](COC[C@@H](O)CN2C(=O)Nc2cccc(Cl)c2)O1)NCc1ccccc1F , can you help?
active

Looking for the measured cytotoxicity call of C[C@@H]1CN([C@@H](C)CO)C(=O)c2cc(C#CC3CC3)cnc2O[C@@H]1CN(C)S(=O)(=O)c1cccc(F)c1 , can you help?
inactive

Looking for the measured cytotoxicity call of C[C@@H]1CN([C@H](C)CO)C(=O)Cc2cc(NC(=O)Cn3cnnn3)ccc2O[C@H]1CN(C)CC1CC1 , can you help?
inactive

Looking for the measured cytotoxicity call of C[C@@H]1CN([C@@H](C)CO)C(=O)c2c(c3ccccc3n2C)-c2ccccc2CO[C@H]1CN(C)Cc1cccc(F)c1 , can you help?
inactive

Looking for the measured cytotoxicity call of C[C@@H]1CN([C@@H](C)CO)C(=O)c2cc(NC(=O)Nc3cccc4ccccc34)ccc2O[C@@H](C)CCCCO[C@H]1CN(C)C(=O)NC1CCCCC1 , can you help?
inactive

Looking for the measured cytotoxicity call of C[C@@H]1CN([C@H](C)CO)C(=O)c2cc(NC(=O)Nc3cccc4ccccc34)ccc2O[C@@H](C)CCCCO[C@H]1CN(C)C(=O)NC1CCCCC1 , can you help?
active
